# Test system: MCF7
# testMethodNotes: Cytotoxicity against human MCF7 cells after 48 hrs by sulforhodamine B assay
# Format: functional
# testContext: MCF7, 48 h
Below is a list of entries, each paired with its recorded log10 GI50 value.
// stored as log10 of GI50 expressed in ng/mL

Study these solved cases before continuing.
- smilesCode: "COc1ccc(/C=C/c2cc(O)c(OC)c(OC)c2)cc1[N+](=O)[O-]"
  measure: "log10 GI50"
  observedResult: 2.75
- smilesCode: "COc1ccc(/C=C\\c2cc(Br)c(OC)c(OC)c2)cc1O"
  measure: "log10 GI50"
  observedResult: -0.34
- smilesCode: "COc1ccc(/C=C/c2cc(Cl)c(OC)c(OC)c2)cc1O"
  measure: "log10 GI50"
  observedResult: 1.61
- smilesCode: "C1COCCN1.C1COCCN1.COc1ccc(/C=C\\c2cc(F)c(OC)c(OC)c2)cc1OP(=O)(O)O"
  measure: "log10 GI50"
  observedResult: 0.90

Now let's try a different one.
Query block: Which log10 GI50 is reported for this compound? `COc1ccc(/C=C\c2cc(F)c(OC)c(OC)c2)cc1OP(=O)([O-])[O-].[K+].[K+]`
Result block: 0.60
